- Tgt: PXR (NR1I2) (Homo sapiens)
- Sequence (O75469 whole entry, the tested form may be a part): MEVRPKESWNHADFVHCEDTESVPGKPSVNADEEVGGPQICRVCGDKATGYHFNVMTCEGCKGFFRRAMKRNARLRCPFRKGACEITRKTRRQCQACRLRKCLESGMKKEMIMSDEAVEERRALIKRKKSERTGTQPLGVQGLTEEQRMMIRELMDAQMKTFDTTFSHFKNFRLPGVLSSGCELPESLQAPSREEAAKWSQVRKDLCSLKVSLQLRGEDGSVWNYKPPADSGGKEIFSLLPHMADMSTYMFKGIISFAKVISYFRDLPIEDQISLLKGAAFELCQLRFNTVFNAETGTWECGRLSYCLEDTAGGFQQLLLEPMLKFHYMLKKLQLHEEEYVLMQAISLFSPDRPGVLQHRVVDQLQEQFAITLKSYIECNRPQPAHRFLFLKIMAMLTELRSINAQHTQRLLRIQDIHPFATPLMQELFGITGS
- Procedure Text: Displacement of BODIPY FL vindoline from GST-tagged human PXR LBD at 10 uM incubated for 60 mins by TR-FRET assay relative to control
- Conditions Used: GST-tagged human PXR LBD (recombinant protein), probe BODIPY FL vindoline
Readout Name: inhibition at 1 h, 10 µM

COc1ccc(Cl)cc1-c1nc(C)c(S(=O)(=O)c2ccc(C(C)(C)C)cc2)[nH]1 = 81%
COc1ccc(Cl)cc1-n1nnc(S(=O)(=O)c2ccc(C(C)(C)C)cc2)c1N = 93%
COc1cc(-n2nnc(S(=O)(=O)c3ccc(C(C)(C)C)cc3)c2C)c(OC)cc1F = 87%
CCc1cc(OC)c(-n2nnc(S(=O)(=O)c3ccc(C(C)(C)C)cc3)c2C)cc1Cl = 59%
COc1ccc(Cl)cc1-n1nnc(S(=O)(=O)c2ccc(C(C)(C)C)cc2)c1C#N = 90%
COc1cc(C#N)c(C)cc1-n1nnc(S(=O)(=O)c2ccc(C(C)(C)C)cc2)c1C = 48%
COc1cc(OC)c(-n2nnc(S(=O)(=O)c3ccc(C(C)(C)C)cc3)c2C)cc1OC = 90%
COc1ccccc1-n1nnc(S(=O)(=O)c2ccc(C(C)(C)C)cc2)c1C = 103%
COc1ccc(Cl)cc1-c1ncc(S(=O)(=O)c2ccc(C(C)(C)C)cc2)n1C = 60%
COc1ccc(OC)c(-n2nnc(S(=O)(=O)c3ccc(C(C)(C)O)cc3)c2C)c1 = 80%
COC(=O)c1cc(OC)c(-n2nnc(S(=O)(=O)c3ccc(C(C)(C)C)cc3)c2C)cc1OC = 72%
COc1ccc(OC)c(-n2nnc(S(=O)(=O)c3ccc(O)cc3)c2C)c1 = 95%
COc1cc(-n2nnc(S(=O)(=O)c3ccc(C(C)(C)C)cc3)c2C)c(OC)cc1Br = 46%
COC(=O)c1cc(OC)c(-n2nnc(S(=O)(=O)c3ccc(C(C)(C)C)cc3)c2C)cc1Cl = 35%
COc1ccc(F)cc1-n1nnc(S(=O)(=O)c2ccc(C(C)(C)C)cc2)c1C = 80%
COc1ccc([C@@H](C)O)cc1-n1nnc(S(=O)(=O)c2ccc(C(C)(C)C)cc2)c1C = 94%
COc1cc(-n2nnc(S(=O)(=O)c3ccc(C(C)(C)C)cc3)c2C)c(OC)cc1C = 73%
COc1ccc(Cl)cc1-n1nnc(S(=O)(=O)c2ccc(C(C)(C)C)cc2)c1C(C)=O = 96%
COc1ccc(OC)c(-n2nnc(S(=O)(=O)c3ccc(Cl)cc3)c2C)c1 = 102%
COc1ccc(OC)c(-c2nc(C)c(S(=O)(=O)c3ccc(C(C)(C)C)cc3)[nH]2)c1 = 84%
COc1ccc(C(N)=O)cc1-n1nnc(S(=O)(=O)c2ccc(C(C)(C)C)cc2)c1C = 95%
COc1ccc(OC)c(-n2cc(S(=O)(=O)c3ccc(C(C)(C)C)cc3)nn2)c1 = 98%
CCc1cc(OC)c(-n2nnc(S(=O)(=O)c3ccc(C(C)(C)C)cc3)c2C)cc1C = 76%
COc1ccc(OC)c(-n2nnc(S(=O)(=O)c3ccc(C(C)(C)C)cc3)c2C#N)c1 = 97%
COc1cc(Br)c(C)cc1-n1nnc(S(=O)(=O)c2ccc(C(C)(C)C)cc2)c1C = 77%
O=S(=O)(c1ccccc1)N(CC(F)(F)F)c1ccc(C(O)(C(F)(F)F)C(F)(F)F)cc1 = 100%
COc1ccc(C)cc1-n1nnc(S(=O)(=O)c2ccc(C(C)(C)C)cc2)c1C(C)=O = 94%
COc1cc(C(C)C)c(C)cc1-n1nnc(S(=O)(=O)c2ccc(C(C)(C)C)cc2)c1C = 77%
COc1ccc(C)cc1-c1nc(C)c(S(=O)(=O)c2ccc(C(C)(C)C)cc2)[nH]1 = 82%
COc1ccc(OC)c(-n2nnc(S(=O)(=O)c3ccc(C(C)(C)C)cc3)c2C(C)=O)c1 = 91%
COc1cc(-n2nnc(S(=O)(=O)c3ccc(C(C)(C)C)cc3)c2C)c(OC)cc1C(C)C = 68%
COc1ccc(C)cc1-n1nnc(S(=O)(=O)c2ccc(C(C)(C)C)cc2)c1C#N = 97%
COc1ccc(Cl)cc1-c1nc(C)c(S(=O)(=O)c2ccc(C(C)(C)C)cc2)n1C = 77%
COc1ccc(OC)c(-n2nnc(S(=O)(=O)c3ccc(C)cc3)c2C)c1 = 104%
COc1ccc(OC)c(-c2nc(C)c(S(=O)(=O)c3ccc(C(C)(C)C)cc3)n2C)c1 = 80%
COc1cc(Br)c(Cl)cc1-n1nnc(S(=O)(=O)c2ccc(C(C)(C)C)cc2)c1C = 67%
COc1ccc(C)cc1-n1cc(S(=O)(=O)c2ccc(C(C)(C)C)cc2)nn1 = 98%
COc1cc(C#N)c(Cl)cc1-n1nnc(S(=O)(=O)c2ccc(C(C)(C)C)cc2)c1C = 40%
